This section presents compounds with their documented IC50 values.
biological target: Recombinant human PKC-theta (His-tagged 362-706) (Homo sapiens, UniProt Q04759); construct: Recombinant human PKC-theta (His-tagged 362-706); His; experiment: PKC-theta inhibition assay (HTRF KinEASE kit); assay type: biochemical; details: ATP 6.5 μM; STK substrate 525 nM; read-out: PKC-theta HTRF pIC50 (converted)
Sequence (Q04759 362-706): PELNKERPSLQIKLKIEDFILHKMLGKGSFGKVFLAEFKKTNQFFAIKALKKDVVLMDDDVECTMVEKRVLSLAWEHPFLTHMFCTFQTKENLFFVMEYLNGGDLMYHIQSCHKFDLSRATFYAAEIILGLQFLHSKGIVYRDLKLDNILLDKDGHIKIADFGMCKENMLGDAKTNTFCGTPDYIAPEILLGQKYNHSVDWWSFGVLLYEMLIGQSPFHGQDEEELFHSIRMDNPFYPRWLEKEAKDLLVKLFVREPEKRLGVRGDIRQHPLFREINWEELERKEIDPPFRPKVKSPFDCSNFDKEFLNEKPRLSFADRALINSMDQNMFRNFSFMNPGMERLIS
reported_property: IC50

query_smiles	result
CC[C@H]1CN(c2cc(Cl)cc(-c3ccnc4c3C(C)(C)C(=O)N4)n2)CCN1	0.794 nM
C[C@@H]1CN(c2cccc(-c3ccnc4[nH]c(=O)[nH]c34)c2)C[C@H](C)N1	2510 nM
C[C@@H]1CN(c2cccc(-c3ccnc4c3C(C)(C)C(=O)N4)c2)CCN1	100 nM

====

biological target: Recombinant human PKC-delta (His-tagged 345-676) (Homo sapiens, UniProt Q05655); construct: PKC-delta (His-tagged 345-676); His; assay: PKC-delta inhibition assay (HTRF KinEASE kit); assay type: biochemical; settings: ratio, PKC-theta vs PKC-delta HTRF
Sequence (Q05655 345-676): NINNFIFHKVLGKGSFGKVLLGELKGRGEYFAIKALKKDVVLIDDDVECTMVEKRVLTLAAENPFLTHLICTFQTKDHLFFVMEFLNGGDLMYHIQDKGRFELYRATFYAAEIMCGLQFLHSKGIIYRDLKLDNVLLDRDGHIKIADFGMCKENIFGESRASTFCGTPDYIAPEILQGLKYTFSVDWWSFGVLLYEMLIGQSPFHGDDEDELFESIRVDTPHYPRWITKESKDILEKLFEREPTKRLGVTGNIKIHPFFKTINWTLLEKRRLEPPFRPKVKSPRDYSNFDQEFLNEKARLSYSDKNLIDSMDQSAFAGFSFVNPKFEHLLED

compound	PKC-theta/PKC-delta selectivity
Cc1cc(-c2ccnc3c2C(C)(C)C(=O)N3)cc(N2CCNCC2)c1 [Example 61]	6
O=c1[nH]c2nccc(-c3cccc(N4CCNCC4)n3)c2[nH]1 [Example 14]	2
CC1(C)C(=O)Nc2nccc(-c3cc(OC(F)F)cc(N4CCNCC4)n3)c21 [Example 86]	10
CCC1(O)C(=O)Nc2nccc(-c3cc(Cl)cc(N4CCN[C@@H](C)C4)n3)c21 (some centres unmarked) [Example 113]	22
CO[C@]1(C)C(=O)Nc2nccc(-c3cc(C(F)(F)F)cc(N4CCNC[C@H]4C)n3)c21 (single isomer, unassigned) [Example 158]	10
CC1(C)C(=O)Nc2nccc(-c3cc(C(F)(F)F)cc(NC4CCNC4)n3)c21 (centres unmarked) [Example 100]	30
C[C@@H]1CN(c2cc(C(F)(F)F)cc(-c3ccnc4c3[C@](C)(O)C(=O)N4)n2)CCN1 (single isomer, unassigned) [Example 108]	15
CO[C@]1(C)C(=O)Nc2nccc(-c3cc(Cl)cc(N4CCNC[C@H]4C)n3)c21 (single isomer, unassigned) [Example 172]	13
CC1(C)C(=O)Nc2nccc(-c3cc(C#N)cc(N4CCNCC4)c3)c21 [Example 53]	3
C[C@H]1CNCCN1c1cccc(-c2ccnc3c2C(C)(C)C(=O)N3)c1 [Example 39]	1
C[C@@H]1CN(c2cccc(-c3ccnc4c3C(C)(C)C(=O)N4)c2)CCN1 [Example 54]	3

====

target: Recombinant human PKC-theta (His-tagged 362-706) (Homo sapiens); construct: Recombinant human PKC-theta (His-tagged 362-706); His; assay: PKC-theta inhibition assay (HTRF KinEASE kit); format: biochemical; conditions: ATP 6.5 μM; STK substrate 525 nM; read-out: PKC-theta HTRF pIC50 (converted)
reported_property: IC50 (nM)

molecule	units	quantitative_result
CC1(C)C(=O)Nc2ncc(C#N)c(-c3cc(F)cc(N4CCNCC4)c3)c21	nM	501
O=C1Nc2nccc(-c3cc(F)cc(N4CCNCC4)c3)c2C12CC2	nM	1000
C[C@H]1CN(c2cc(Cl)cc(-c3ccnc4c3[C@](C)(O)C(=O)N4)n2)CCN1 (single isomer, unassigned)	nM	1
CC[C@H]1CN(c2cc(C(F)(F)F)cc(-c3ccnc4c3C(C)(C)C(=O)N4)n2)CCN1	nM	2
C[C@@H]1CCNCCN1c1cc(C(F)(F)F)cc(-c2ccnc3c2C(C)(C)C(=O)N3)n1	nM	6.31
C[C@@H]1CN(c2cc(-c3ccnc4c3C(C)(O)C(=O)N4)cc(C(F)(F)F)c2)CCN1 (stereo partly drawn)	nM	100
C[C@@]1(O)C(=O)Nc2nccc(-c3cc(C(F)(F)F)cc(N4C[C@H]5CC[C@@H](C4)N5)n3)c21 (single isomer, unassigned)	nM	25.1
C[C@H]1CN(c2cccc(-c3ccnc4c3C(C)(C)C(=O)N4)c2)CCN1	nM	126
CC[C@H]1CN(c2cccc(-c3ccnc4c3C(C)(C)C(=O)N4)c2)CCN1	nM	79.4
CC1(C)C(=O)Nc2nccc(-c3cc(C(F)(F)F)cc(N4CC5CCC4CN5)n3)c21 (stereo not drawn)	nM	12.6
C[C@@H]1CN(c2cc(Cl)cc(-c3ccnc4c3C(C)(O)C(=O)N4)n2)CCN1 (stereo partly drawn)	nM	6.31
CC1(C)C(=O)Nc2nccc(-c3cc(C(F)(F)F)cc(N4CC5CC(C4)N5)n3)c21	nM	63.1
C[C@@H]1CN(c2cc(C(C)(F)F)cc(-c3ccnc4c3C(C)(C)C(=O)N4)n2)CCCN1	nM	6.31
CC1(C)C(=O)Nc2nccc(-c3cccc(N4CCNCC4)c3)c21	nM	100
C[C@@H]1CNCCN1c1cc(Cl)cc(-c2ccnc3c2[C@](C)(O)C(=O)N3)n1 (single isomer, unassigned)	nM	1
CC[C@]1(C)C(=O)Nc2nccc(-c3cc(C(C)(F)F)cc(N4CCN[C@@H](C)C4)n3)c21 (single isomer, unassigned)	nM	1.58
COC[C@@H]1CN(c2cc(C(F)(F)F)cc(-c3ccnc4c3C(C)(C)C(=O)N4)n2)CCN1	nM	25.1
C[C@H]1NCCN(c2cc(C(F)(F)F)cc(-c3ccnc4c3C(C)(C)C(=O)N4)n2)[C@H]1C [Example 127]	nM	1.26
CC1(C)C(=O)Nc2ncc(Br)c(-c3cc(F)cc(N4CCNCC4)c3)c21	nM	39.8
O=C1Cc2c(-c3cccc(N4CCNCC4)c3)ccnc2N1	nM	251
O=C1Nc2nccc(-c3cc(F)cc(N4CCNCC4)c3)c2C12CCC2	nM	39.8

====

target: Recombinant human PKC-theta (His-tagged 362-706) (Homo sapiens, UniProt Q04759); construct: Recombinant human PKC-theta (His-tagged 362-706); His; test: PKC-theta inhibition assay (HTRF KinEASE kit); format: biochemical; details: ATP 6.5 μM; STK substrate 525 nM; read-out: PKC-theta HTRF pIC50 (converted)
Items are presented alongside their recorded IC50.
reported_property: IC50 (µM)

compound	reported_property	units	quantitative_result
C[C@@]1(O)C(=O)Nc2nccc(-c3cc(Cl)cc(N4CCNC(CC(F)(F)F)C4)n3)c21 (single isomer, unassigned) [Example 122]	IC50	µM	0.00398
C[C@@]1(O)C(=O)Nc2nccc(-c3cc(C(F)(F)F)cc(N4CCNC(C(F)F)C4)n3)c21 (single isomer, unassigned) [Example 123]	IC50	µM	0.02
C[C@@H](O)[C@H]1CN(c2cc(C(F)(F)F)cc(-c3ccnc4c3C(C)(C)C(=O)N4)n2)CCN1 [Example 116]	IC50	µM	0.00501
CC1(O)C(=O)Nc2nccc(-c3cc(N4CCNCC4)ccc3F)c21 (centres unmarked) [Example 60]	IC50	µM	0.126
CC[C@H]1CN(c2cc(Cl)cc(-c3ccnc4c3[C@@](C)(OC)C(=O)N4)n2)CCN1 (single isomer, unassigned) [Example 152]	IC50	µM	0.00631
C[C@@]1(O)C(=O)Nc2nccc(-c3cc(C(F)(F)F)cc(N4CC[C@H]5OCCN[C@@H]5C4)n3)c21 (single isomer, unassigned) [Example 97]	IC50	µM	0.158
CC[C@]1(O)C(=O)Nc2nccc(-c3cc(C(F)(F)F)cc(N4CCNC[C@H]4C)n3)c21 (single isomer, unassigned) [Example 167]	IC50	µM	0.316
CC1C(=O)Nc2nccc(-c3cccc(CN4CCNCC4)c3)c21 (centres unmarked) [Example 19]	IC50	µM	0.2
C[C@H]1CN(c2cc(Cl)cc(-c3ccnc4c3C(C)(O)C(=O)N4)c2)CCN1 (some centres unmarked) [Example 75]	IC50	µM	0.00794
CC1(C)CN(c2cc(C(F)(F)F)cc(-c3ccnc4c3[C@](C)(O)C(=O)N4)n2)CCN1 (single isomer, unassigned) [Example 134]	IC50	µM	0.00794
CC[C@]1(C)C(=O)Nc2nccc(-c3cc(C(C)(F)F)cc(N4CCNC[C@H]4C)n3)c21 (single isomer, unassigned) [Example 201]	IC50	µM	0.000501
CC1(C)C(=O)Nc2nccc(-c3cc(Cl)cc(N4CCNCC4)c3)c21 [Example 40]	IC50	µM	0.0316
COC1(C)C(=O)Nc2nccc(-c3cc(F)cc(N4CCNCC4)c3)c21 (centres unmarked) [Example 57]	IC50	µM	0.0501
CCC1(C)C(=O)Nc2nccc(-c3cc(Cl)cc(N4CCN[C@@H](C)C4)n3)c21 (some centres unmarked) [Example 147]	IC50	µM	0.00251
C[C@H]1CNCCN1c1cc(F)cc(-c2ccnc3c2C(C)(C)C(=O)N3)c1 [Example 30]	IC50	µM	0.0316
C[C@]1(O)C(=O)Nc2nccc(-c3cc(F)cc(N4CCNCC4)c3)c21 (single isomer, unassigned) [Example 62]	IC50	µM	0.00631
CCC1(O)C(=O)Nc2nccc(-c3cc(Cl)cc(N4CCN[C@@H](C)C4)n3)c21 (some centres unmarked) [Example 113]	IC50	µM	0.00316
CC1(O)C(=O)Nc2nccc(-c3cc(N4CCNCC4)cc(C(F)(F)F)c3)c21 (centres unmarked) [Example 56]	IC50	µM	0.02
CC(F)(F)c1cc(-c2c(F)cnc3c2C(C)(C)C(=O)N3)nc(N2CCNCC2)c1 [Example 174]	IC50	µM	0.0316
O=C1Nc2nccc(-c3cc(C(F)(F)F)cc(N4CCNCC4)n3)c2C12CCCC2 [Example 103]	IC50	µM	0.0158
CC1(C)C(=O)Nc2nccc(-c3cc(C(F)(F)F)cc(N4CCNCC4C(F)F)n3)c21 (centres unmarked) [Example 160]	IC50	µM	0.00316
CCC1(C)C(=O)Nc2ncc(F)c(-c3cc(C(F)(F)F)cc(N4CCNC[C@H]4C)n3)c21 (some centres unmarked) [Example 157]	IC50	µM	0.00794
COC1(C)C(=O)Nc2nccc(-c3cc(C(F)(F)F)cc(N4CCN[C@@H](C)C4)n3)c21 (some centres unmarked) [Example 112]	IC50	µM	0.0158

From: patent US20260035367A1
